Data origin, for the record: patent US4695569A

- Tested on: compound 48/80-induced lethality
- Method description: Protection of rats from compound 48/80-induced lethality
- Format: in vivo, rat (male, inbred Wistar strain)
- Setup conditions: Rattus norvegicus, 4 h, read-out: Compound 48/80 lethality test in rats-ED50
Quantity kind: ED50 (mg/kg)
The answer is to be given in mg/kg; state only the numeric part.

# lookup: ED50 of O=c1[nH]c2ccccc2c(=O)n1CCN1CCC(Nc2nc3cccnc3n2Cc2ccc(F)cc2)CC1
0.16

# lookup: ED50 of Cc1nc2ccccn2c(=O)c1CCN1CCC(Nc2nc3ccccc3n2Cc2cscn2)CC1
0.08

# lookup: ED50 of Cc1nc2ccccn2c(=O)c1CCN1CCC(Nc2nc3ccccc3n2Cc2ccc(F)cc2)CC1
0.16

# lookup: ED50 of Cc1nc2n(c(=O)c1CCN1CCC(Nc3nc4ccccc4n3Cc3ccco3)CC1)CCCS2
0.02

# lookup: ED50 of Cc1nc2scc(C)n2c(=O)c1CCN1CCC(Nc2nc3cccnc3n2Cc2ccc(F)cc2)CC1
0.04

# lookup: ED50 of Fc1ccc(Cn2c(NC3CCN(CCNc4nc5cnccc5[nH]4)CC3)nc3ccccc32)cc1
0.04

# lookup: ED50 of Cc1nc2ccccn2c(=O)c1CCN1CCC(Nc2nc3cccnc3n2Cc2ccccn2)CC1
0.08

# lookup: ED50 of Cc1nc2scc(C)n2c(=O)c1CCN1CCC(Nc2nc3cccnc3n2Cc2ccco2)CC1
0.08

# lookup: ED50 of Cc1ccc2nc(C)c(CCN3CCC(Nc4nc5cccnc5n4Cc4ccco4)CC3)c(=O)n2c1
0.04

# lookup: ED50 of Fc1ccc(Cn2c(NC3CCN(CCc4cn5ccsc5n4)CC3)nc3ccccc32)cc1
0.08
